System: DND-41
PROCEDURE_DETAILS: selective drug sensitivity score (sDSS, relative to normal bone marrow) (sDSS (score)); higher = more potent and effective on the cell line relative to normal bone marrow cells;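 also: ALL cell lines in 384-well plates, five doses spanning 10,000-fold, each plate scaled between vehicle and 100 µmol/L benzalkonium chloride controls, sDSS an adapted area-under-curve metric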
CONDITION_CONTEXT: 72 h
PROPERTY_LABEL: selective drug sensitivity score
Give bare numbers.

Reference set (3 entries):
C[C@@H]1COCCN1c1cc(C2([S@](C)(=N)=O)CC2)nc(-c2cc[nH]c3nccc2-3)n1 [AZD6738] (top concentration 25000 nM)    8.58
CCN(CC)CCNC(=O)c1c(C)[nH]c(/C=C2\C(=O)Nc3ccc(F)cc32)c1C [Sunitinib] (top concentration 1000 nM)    -1.44
Cn1ncc(Cl)c1-c1cc(C(=O)N[C@H](CN)Cc2ccc(F)c(F)c2)oc1Cl [Uprosertib] (top concentration 10000 nM)    -1.3

Batch: selective drug sensitivity score for all items listed.
1. Nc1cccc2c1C(=O)N(C1CCC(=O)NC1=O)C2=O (stereo unspecified) [Pomalidomide] (top concentration 10000 nM)
2. COc1cc(C(=O)O)ccc1NC(=O)[C@@H]1N[C@@H](CC(C)(C)C)[C@](C#N)(c2ccc(Cl)cc2F)[C@H]1c1cccc(Cl)c1F [Idasanutlin] (top concentration 10000 nM)

4.24
-11

Would you mind telling me what selective drug sensitivity score value was observed for CCCCNc1ncc(C(=O)NCc2ccc(-n3ccnc3)cc2)c(NC2CCC(O)CC2)n1 (stereo unspecified) [UNC2881] (top concentration 2500 nM) ?
0

---

For each entry below, report its selective drug sensitivity score value.
Tested on: COG-LL-332h
PROCEDURE_DETAILS: selective drug sensitivity score (sDSS, relative to normal bone marrow) (sDSS (score)); higher = more potent and effective on the cell line relative to normal bone marrow cells
CONDITION_CONTEXT: 72 h

CCN(c1cc(-c2ccc(CN3CCOCC3)cc2)cc(C(=O)NCc2c(C)cc(C)[nH]c2=O)c1C)C1CCOCC1 [Tazemetostat] (top concentration 10000 nM)    -0.08
CCS(=O)(=O)Nc1ccc(Oc2ccc(F)cc2F)c(-c2cn(C)c(=O)c3[nH]ccc23)c1 [Mivebresib] (top concentration 10000 nM)    -3.9
Cc1nc(=O)c2cc(CN(C)c3ccc(C(=O)N[C@@H](CCC(=O)O)C(=O)O)s3)ccc2[nH]1 [Raltitrexed] (top concentration 1000 nM)    18.3

Batch: selective drug sensitivity score for all items listed.
1. O=C(Nc1c[nH]nc1-c1nc2ccc(CN3CCOCC3)cc2[nH]1)NC1CC1 [AT9283] (top concentration 1000 nM)
2. CC(C)[C@@H](CS(=O)(=O)C(C)C)N1C(=O)[C@@](C)(CC(=O)O)C[C@H](c2cccc(Cl)c2)[C@H]1c1ccc(Cl)cc1 [AMG-232] (top concentration 10000 nM)
3. CN1CCN(C2CCN(C(=O)Nc3cc(Oc4ccc(NC(=O)C5(C(=O)Nc6ccc(F)cc6)CC5)c(F)c4)ccn3)CC2)CC1 [Golvatinib] (top concentration 2500 nM)

[11.7, 9.26, 0.86]

---

Tested on: MOLT-4
PROCEDURE_DETAILS: selective drug sensitivity score (sDSS, relative to normal bone marrow) (sDSS (score)); higher = more potent and effective on the cell line relative to normal bone marrow cells
CONDITION_CONTEXT: 72 h
So basically: selective drug sensitivity score at 10 or higher? That is met. Lower than 10? That is not met.

A selection of reference data follows.
COc1cccc2c1C(=O)c1c(O)c3c(c(O)c1C2=O)C[C@@](O)(/C(CO)=N/NC(=O)CCCCCN1C(=O)C=CC1=O)C[C@@H]3O[C@H]1C[C@H](N)[C@H](O)[C@H](C)O1 [Aldoxorubicin] (top concentration 1000 nM)    met
Cc1nc(NC(=O)N2CCC[C@H]2C(N)=O)sc1-c1ccnc(C(C)(C)C(F)(F)F)c1 [Alpelisib] (top concentration 2500 nM)    not met
CN1CC[C@@H](NC(=O)Nc2ccc(C#N)cc2)C[C@@H]1c1nc2ccccc2[nH]1 [Glasdegib] (top concentration 1000 nM)    not met
Nc1ncnc2c1c(-c1cccc(OCc3ccccc3)c1)cn2[C@H]1C[C@@H](CN2CCC2)C1 [NVP-AEW541] (top concentration 10000 nM)    not met
NC(=O)N1CCC(CC(=O)N2CCC([C@H]3c4ncc(Br)cc4CCc4cc(Cl)cc(Br)c43)CC2)CC1 [Lonafarnib] (top concentration 100000 nM)    met

In the following, a different molecule is considered.
Determine whether this molecule has selective drug sensitivity score no lower than 10: CNc1ncc2cc(-c3cc(NC(=O)NCCC(C)(C)C)c(F)cc3C)c(C)nc2n1 (top concentration 10000 nM)
not met
